These measurements were taken from patent US20050026968A1.

Measured log10(MIC), listed per entry for reference.
Test system: M. tuberculosis H37Ra
Assay: MIC against M. tuberculosis H37Ra, micro broth dilution in microtiter plates
Conditions: Mycobacterium tuberculosis, H37RA, Table 4; M. tuberculosis H37Ra, MIC90
Please note: log10 values; quantity MIC; unit µg/mL.

Prompt: Bench note: what log10(MIC) did O=C(Nc1cccc(N2CCC(Cc3ccccc3)CC2)c1)c1ccc([N+](=O)[O-])o1 [Compound 62] show?
Response: 1.10

Prompt: For O=C(Nc1cccc(N2CCN(Cc3ccccc3)CC2)c1)c1ccc([N+](=O)[O-])o1 [Compound 61] then?
Response: 1.10

Prompt: Repeat with O=C(Nc1ccc(N2CCN(Cc3ccccc3)CC2)cc1)c1ccc([N+](=O)[O-])o1 [Compound 56]
Response: -0.10

Prompt: Now consider CN1CCN(c2cccc(CNC(=O)c3ccc([N+](=O)[O-])o3)c2)CC1 [Compound 68] and answer again.
Response: 0.49

Prompt: Proceed to O=C(c1ccc([N+](=O)[O-])o1)N1Cc2ccccc2C1 [Compound 71]
Response: -0.11

Prompt: Continue with O=C(Nc1cccc(N2CCN(c3ccccn3)CC2)c1)c1ccc([N+](=O)[O-])o1 [Compound 63]
Response: 0.20

Prompt: // query: O=C(Nc1ccc(N2CCC(Cc3ccccc3)CC2)cc1)c1ccc([N+](=O)[O-])o1 [Compound 57]
Response: 0.49

Prompt: Try this compound too: O=C(NCc1cccc(N2CCC(Cc3ccccc3)CC2)c1)c1ccc([N+](=O)[O-])o1 [Compound 70]
Response: -2.21

Prompt: Here is the next compound: CN1CCN(c2ccc(NC(=O)c3ccc([N+](=O)[O-])o3)cc2)CC1 [Compound 55]
Response: 0.80

Prompt: # iterate: O=C(Nc1cccc(N2CCOCC2)c1)c1ccc([N+](=O)[O-])o1 [Compound 59]
Response: 0.49

Prompt: Same for CN1CCN(c2cccc(NC(=O)c3ccc([N+](=O)[O-])o3)c2)CC1 [Compound 60]
Response: 1.10

Prompt: // same read-out, input: O=C(NCc1ccc(N2CCOCC2)cc1)c1ccc([N+](=O)[O-])o1 [Compound 64]
Response: -1.00

Prompt: Cool, now O=C(NCc1ccc(N2CCN(Cc3ccccc3)CC2)cc1)c1ccc([N+](=O)[O-])o1 [Compound 66]
Response: -2.21

Prompt: Try O=C(Nc1ccc(N2CCOCC2)cc1)c1ccc([N+](=O)[O-])o1 [Compound 54] next.
Response: 0.20
